system: CAKI-1 renal; assay: NCI-60 one-dose screen, 48 h (100 = growth as untreated, 0 = no growth, -100 = all killed); details: 10 µM unless noted
This is part of a sample that, as a whole, favours compounds with a hit. Of some 83,000 tested, about 20% had one in any assay. Calls of active or inactive are those of the source. The calls were made as follows: active = growth percent below 10; inactive = the rest.

>  <molecule>
CCOC(=O)c1c(NC(=O)C2CCCCC2C(=O)O)sc2c1CCCC2 (stereo unspecified)

>  <growth>
92.7% (inactive)

$$$$
>  <molecule>
COc1ccc(CCN2CCCN3C2=Nc2ccccc2S3(=O)=O)cc1

>  <growth>
46.5% (inactive)

$$$$
>  <molecule>
CCC(c1ccccc1)c1noc(CCN(CC)CC)n1 (stereo unspecified)

>  <growth>
94.1% (inactive)

$$$$
>  <molecule>
COc1ccc(-c2cncn2-c2ccc(-c3nc4cc(OC)c(OC)c(OC)c4s3)cc2)cc1N

>  <growth>
30.4% (inactive)

$$$$
>  <molecule>
O=C(Nc1ccc(C2=NCCCN2)cc1)Nc1ccc(C2=NCCCN2)cc1

>  <growth>
79.3% (inactive)

$$$$
>  <molecule>
Nc1nc(Cl)c2[nH]cnc2n1

>  <growth>
89.4% (inactive)

$$$$
>  <molecule>
COc1ccc(C2CC(c3cccc(Nc4ccnc5cc(Cl)ccc45)c3)=NN2C=O)cc1 (stereo unspecified)

>  <growth>
17.4% (inactive)

$$$$
>  <molecule>
COc1ccc(C(=O)/C=C/c2c(Cl)nc3c(c(C)nn3-c3ccccc3)c2-c2ccc(Br)cc2)cc1

>  <growth>
100% (inactive)

$$$$
>  <molecule>
O[C@@H]1Cc2ccc3ccccc3c2N[C@H](c2ccoc2)C1

>  <growth>
96.6% (inactive)

$$$$
>  <molecule>
CC(C)c1nc(N(C)S(C)(=O)=O)nc(-c2ccc(F)cc2)c1/C=C/[C@@H](O)C[C@@H](O)CC(=O)O

>  <growth>
97.6% (inactive)

$$$$
>  <molecule>
Nc1nc(SCc2ccccc2Cl)c(-c2ccccc2)c(SCc2ccccc2Cl)n1

>  <growth>
79.6% (inactive)

$$$$
